System: K24384-001-R-PDC complex spheroid viability
test: Anticancer human tumor K24384-001-R-PDC patient-derived pancreatic adenocarcinoma cell line growth inhibition
conditions: second compound 3.16 µM; first compound 0.3 µM; stronger effect = lower value
Entries and their viability, T/C values follow.
Hi! Could you send only the number? It should be in %, unit omitted.

INSERT INTO assay_data (molecule, endpoint_unit, value_measured) VALUES
  ('COc1cc(C2c3cc4c(cc3C(OC3OC5COC(C)OC5C(O)C3O)C3COC(=O)C23)OCO4)cc(OC)c1O (stereo not drawn) + NC1CCC(NC2CC2c2ccccc2)CC1', '%', 65),
  ('CCN(c1cc(-c2ccc(CN3CCOCC3)cc2)cc(C(=O)NCc2c(C)cc(C)[nH]c2=O)c1C)C1CCOCC1 + NC1CC1c1ccc(-c2cccc(O)c2)cc1', '%', 111);

Proceed to the following item.
INPUT: Provide one value: measured viability, T/C of O=C(C=Cc1cccc(S(=O)(=O)Nc2ccccc2)c1)NO + NC1CC1c1ccc(-c2cccc(O)c2)cc1
OUTPUT: 35.5

* * *

System: K24384-001-R-PDC complex spheroid viability
test: Anticancer human tumor K24384-001-R-PDC cell line growth inhibition
conditions: curve of first compound; second compound 3.16 µM
Entries and their IC50 values follow.

Look over these answered cases.
INSERT INTO results (compound, target_entity, property_measured, value_measured) VALUES
  ('CC(C)c1c(-c2ccccc2)nc2c(C#N)c[nH]n2c1=O + NC1CC1c1ccc(-c2cccc(O)c2)cc1', 'K24384-001-R-PDC complex spheroid viability', 'IC50', '> 10000 nM'),
  ('Nc1ncn(C2CC(O)C(CO)O2)c(=O)n1 (stereo not drawn) + NC1CCC(NC2CC2c2ccccc2)CC1', 'K24384-001-R-PDC complex spheroid viability', 'IC50', '> 1000 nM');

Proceed to the following item.
INPUT: Write down measured IC50 (K24384-001-R-PDC complex spheroid viability) for this compound. CCc1c2c(nc3ccc(O)cc13)-c1cc3c(c(=O)n1C2)COC(=O)[C@]3(O)CC + NC1CC1c1ccc(-c2cccc(O)c2)cc1
OUTPUT: < 0.949 nM

* * *

Entries and their viability, T/C values follow.
Test system: K24384-001-R-PDC complex spheroid viability
test: Anticancer human tumor K24384-001-R-PDC cell line growth inhibition;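 further: spheroids exposed to agents for seven days before luminescence viability reading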;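 on viability, T/C: 100% = DMSO vehicle control viability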
conditions: second compound 0.1 µM; first compound 0.0949 µM; stronger effect = lower value
Hi! Could you send only the number? It should be in %, unit omitted.

Look over these answered cases.
INSERT INTO results (molecule, target_entity, endpoint_unit, value_measured) VALUES
  ('Nc1ccccc1NC(=O)c1ccc(CNC(=O)OCc2cccnc2)cc1 + NC1CC1c1ccc(-c2cccc(O)c2)cc1', 'K24384-001-R-PDC complex spheroid viability', '%', 118),
  ('NS(=O)(=O)OCC1CC(n2ccc3c(NC4CCc5ccccc54)ncnc32)CC1O (configuration not stated) + NC1CCC(NC2CC2c2ccccc2)CC1', 'K24384-001-R-PDC complex spheroid viability', '%', 125),
  ('NS(=O)(=O)OCC1CC(n2ccc3c(NC4CCc5ccccc54)ncnc32)CC1O (configuration not stated) + NC1CC1c1ccc(-c2cccc(O)c2)cc1', 'K24384-001-R-PDC complex spheroid viability', '%', 154),
  ('Nc1ccccc1NC(=O)c1ccc(CNC(=O)OCc2cccnc2)cc1 + NC1CCC(NC2CC2c2ccccc2)CC1', 'K24384-001-R-PDC complex spheroid viability', '%', 76.2),
  ('Nc1ccn(C2OC(CO)C(O)C2(F)F)c(=O)n1 (configuration not stated) + NC1CCC(NC2CC2c2ccccc2)CC1', 'K24384-001-R-PDC complex spheroid viability', '%', 46.8);

Proceed to the following item.
INPUT: Provide one value: measured viability, T/C of Nc1ccn(C2OC(CO)C(O)C2(F)F)c(=O)n1 (configuration not stated) + NC1CC1c1ccc(-c2cccc(O)c2)cc1
OUTPUT: 41.9

* * *

Test system: K24384-001-R-PDC complex spheroid viability
test: Anticancer human tumor K24384-001-R-PDC cell line growth inhibition;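 further: spheroids exposed to agents for seven days before luminescence viability reading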
conditions: curve of first compound; second compound 1 µM
Description: Multicellular complex tumor spheroid response to LSD1 Inhibitor Iadademstat in combination with a variety of drugs and investigational agents in selected tumor cell lines The current study was undertaken to assess response to LSD1 inhibitors in combination with standard-of-care drugs and investigational agents in solid tumor complex spheroid models as well as in the K-562 leukemia. […] Compounds. […] If the clinical Cmax for an agent had not been determined, the highest concentration tested was 10 microM. […]
property measured: IC50

Look over these answered cases.
INSERT INTO results (compound, value_measured) VALUES
  ('Nc1ncn(C2CC(O)C(CO)S2)c(=O)n1 (centres undefined) + NC1CCC(NC2CC2c2ccccc2)CC1', '> 0.3 µM'),
  ('O=C(c1cc(Cc2n[nH]c(=O)c3ccccc23)ccc1F)N1CCN(C(=O)C2CC2)CC1 + NC1CCC(NC2CC2c2ccccc2)CC1', '> 10 µM'),
  ('COc1cc(Nc2ncc3c(n2)-c2ccc(Cl)cc2C(c2c(F)cccc2OC)=NC3)ccc1C(=O)O + NC1CCC(NC2CC2c2ccccc2)CC1', '> 1 µM');

INPUT: Provide one value: measured IC50 of Nc1ncn(C2CC(O)C(CO)S2)c(=O)n1 (centres undefined) + NC1CC1c1ccc(-c2cccc(O)c2)cc1
OUTPUT: > 0.3 µM

* * *

Entries and their viability, T/C values follow.
Test system: K24384-001-R-PDC complex spheroid viability
test: Anticancer human tumor K24384-001-R-PDC cell line growth inhibition;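 further: spheroids exposed to agents for seven days before luminescence viability reading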;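 on viability, T/C: 100% = DMSO vehicle control viability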
conditions: second compound 0.1 µM; first compound 0.00949 µM; stronger effect = lower value
Hi! Could you send only the number? It should be in %, unit omitted.

INPUT: Provide one value: measured viability, T/C of CCN(c1cc(-c2ccc(CN3CCOCC3)cc2)cc(C(=O)NCc2c(C)cc(C)[nH]c2=O)c1C)C1CCOCC1 + NC1CC1c1ccc(-c2cccc(O)c2)cc1
OUTPUT: 113

INPUT: Provide one value: measured viability, T/C of NS(=O)(=O)OCC1CC(n2ccc3c(NC4CCc5ccccc54)ncnc32)CC1O (centres undefined) + NC1CC1c1ccc(-c2cccc(O)c2)cc1
OUTPUT: 124

INPUT: Provide one value: measured viability, T/C of CCc1c2c(nc3ccc(O)cc13)-c1cc3c(c(=O)n1C2)COC(=O)[C@]3(O)CC + NC1CCC(NC2CC2c2ccccc2)CC1
OUTPUT: 30.9

INPUT: Provide one value: measured viability, T/C of COc1cc(C2c3cc4c(cc3C(OC3OC5COC(C)OC5C(O)C3O)C3COC(=O)C23)OCO4)cc(OC)c1O (centres undefined) + NC1CC1c1ccc(-c2cccc(O)c2)cc1
OUTPUT: 96.9

INPUT: Provide one value: measured viability, T/C of Nc1ncn(C2CC(O)C(CO)S2)c(=O)n1 (centres undefined) + NC1CC1c1ccc(-c2cccc(O)c2)cc1
OUTPUT: 101

INPUT: Provide one value: measured viability, T/C of CCN(c1cc(-c2ccc(CN3CCOCC3)cc2)cc(C(=O)NCc2c(C)cc(C)[nH]c2=O)c1C)C1CCOCC1 + NC1CCC(NC2CC2c2ccccc2)CC1
OUTPUT: 96

INPUT: Provide one value: measured viability, T/C of Nc1ncn(C2CC(O)C(CO)S2)c(=O)n1 (centres undefined) + NC1CCC(NC2CC2c2ccccc2)CC1
OUTPUT: 93

INPUT: Provide one value: measured viability, T/C of COc1cc(C2c3cc4c(cc3C(OC3OC5COC(C)OC5C(O)C3O)C3COC(=O)C23)OCO4)cc(OC)c1O (centres undefined) + NC1CCC(NC2CC2c2ccccc2)CC1
OUTPUT: 91.2

INPUT: Provide one value: measured viability, T/C of O=C(C=Cc1cccc(S(=O)(=O)Nc2ccccc2)c1)NO + NC1CC1c1ccc(-c2cccc(O)c2)cc1
OUTPUT: 105

* * *

Tested on: K24384-001-R-PDC complex spheroid viability
test: Anticancer human tumor K24384-001-R-PDC cell line growth inhibition;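 further: spheroids exposed to agents for seven days before luminescence viability reading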;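 on viability, T/C: 100% = DMSO vehicle control viability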
conditions: second compound 0.316 µM; first compound 1 µM; stronger effect = lower value
From the text: Multicellular complex tumor spheroid response to LSD1 Inhibitor Iadademstat in combination with a variety of drugs and investigational agents in selected tumor cell lines The current study was undertaken to assess response to LSD1 inhibitors in combination with standard-of-care drugs and investigational agents in solid tumor complex spheroid models as well as in the K-562 leukemia. […] Compounds. […] If the clinical Cmax for an agent had not been determined, the highest concentration tested was 10 microM. […]
Entries and their viability, T/C values follow.
Hi! Could you send only the number? It should be in %, unit omitted.

INSERT INTO measurements (compound, value_measured) VALUES
  ('COc1cc(Nc2ncc3c(n2)-c2ccc(Cl)cc2C(c2c(F)cccc2OC)=NC3)ccc1C(=O)O + NC1CCC(NC2CC2c2ccccc2)CC1', 58.6),
  ('Nc1ncn(C2CC(O)C(CO)O2)c(=O)n1 (stereo not given) + NC1CC1c1ccc(-c2cccc(O)c2)cc1', 68.9),
  ('COc1ccc([C@@H](O)c2cc(-c3ncnc4cc(N5CCOCC5)ccc34)c(F)cc2Cl)nn1 + NC1CC1c1ccc(-c2cccc(O)c2)cc1', 73.2),
  ('O=C(C=Cn1cnc(-c2cc(C(F)(F)F)cc(C(F)(F)F)c2)n1)NNc1cnccn1 + NC1CC1c1ccc(-c2cccc(O)c2)cc1', 20.3);

Proceed to the following item.
INPUT: Provide one value: measured viability, T/C of COc1ccc([C@@H](O)c2cc(-c3ncnc4cc(N5CCOCC5)ccc34)c(F)cc2Cl)nn1 + NC1CCC(NC2CC2c2ccccc2)CC1
OUTPUT: 59.8
